Overview of recorded relative viability for various compounds
- System: NCI-H2087
- Protocol: relative viability (nuclei count vs DMSO), 5 days (fraction); higher = more cells survive
- Assay Conditions: first compound 0.01 µM
Keep it simple and answer with nothing but the number.

These solved cases illustrate the format of a correct answer.
compound="NC(=O)Nc1cc(-c2cccc(F)c2)sc1C(=O)N[C@H]1CCCNC1 [AZD7762] + Cc1nc(NC(=O)N2CCC[C@H]2C(N)=O)sc1-c1ccnc(C(C)(C)C(F)(F)F)c1 [Alpelisib] (partner 2 µM)" measured_quantity="relative viability" reported_result=1.18
compound="NC(=O)Nc1cc(-c2cccc(F)c2)sc1C(=O)N[C@H]1CCCNC1 [AZD7762] + C[C@]1(O)C[C@@H](c2nc(-c3ccc4ccc(-c5ccccc5)nc4c3)c3c(N)nccn32)C1 [Linsitinib] (partner 1 µM)" measured_quantity="relative viability" reported_result=0.995
compound="NC(=O)Nc1cc(-c2cccc(F)c2)sc1C(=O)N[C@H]1CCCNC1 [AZD7762] + N=C(N)NC(=N)NCCc1ccccc1 [Phenformin] (partner 250 µM)" measured_quantity="relative viability" reported_result=0.434
compound="NC(=O)Nc1cc(-c2cccc(F)c2)sc1C(=O)N[C@H]1CCCNC1 [AZD7762] + Nc1ncn([C@H]2C[C@H](O)[C@@H](CO)O2)c(=O)n1 [Decitabine] (partner 2 µM)" measured_quantity="relative viability" reported_result=0.313
compound="NC(=O)Nc1cc(-c2cccc(F)c2)sc1C(=O)N[C@H]1CCCNC1 [AZD7762] + COc1cccc2cc(-c3nc([C@H]4CC[C@H](C(=O)O)CC4)n4ncnc(N)c34)[nH]c12 [OSI-027] (partner 0.5 µM)" measured_quantity="relative viability" reported_result=0.474

Next:
Q: Assign relative viability to the following record: NC(=O)Nc1cc(-c2cccc(F)c2)sc1C(=O)N[C@H]1CCCNC1 [AZD7762] + O=C(c1cc(Cc2n[nH]c(=O)c3ccccc23)ccc1F)N1CCN(C(=O)C2CC2)CC1 [Olaparib] (partner 8 µM)
A: 0.712

###

- System: NCI-H322M
- Protocol: relative viability (nuclei count vs DMSO), 5 days (fraction); higher = more cells survive
- Assay Conditions: first compound 2.53 µM
Measured Quantity: relative viability
// keep it numeric: no unit symbol after the value

Recorded relative viability, per entry:
compound="Oc1nc(-c2ccc(C(F)(F)F)cc2)nc2c1CSCC2 [XAV939] + CC1(C)CCC(c2ccc(Cl)cc2)=C(CN2CCN(c3ccc(C(=O)NS(=O)(=O)c4ccc(N[C@H](CCN5CCOCC5)CSc5ccccc5)c(S(=O)(=O)C(F)(F)F)c4)cc3)CC2)C1 [Navitoclax] (partner 0.5 µM)" reported_result=1.03
compound="C=C1C(=O)O[C@@H](CCCCCCCC)[C@@H]1C(=O)O [C-75] + CS(=O)(=O)N1CCN(Cc2cc3nc(-c4cccc5[nH]ncc45)nc(N4CCOCC4)c3s2)CC1 [Pictilisib] (partner 1 µM)" reported_result=0.528
compound="C=C1C(=O)O[C@@H](CCCCCCCC)[C@@H]1C(=O)O [C-75] + CS(=O)(=O)CCNCc1ccc(-c2ccc3ncnc(Nc4ccc(OCc5cccc(F)c5)c(Cl)c4)c3c2)o1 [Lapatinib] (partner 2 µM)" reported_result=0.568

Alright, here's another compound for you.
Q: Output measured relative viability for this item: Oc1nc(-c2ccc(C(F)(F)F)cc2)nc2c1CSCC2 [XAV939] + C[C@]1(O)C[C@@H](c2nc(-c3ccc4ccc(-c5ccccc5)nc4c3)c3c(N)nccn32)C1 [Linsitinib] (partner 1 µM)
A: 0.618

###

- Tested on: NCI-H2342
- Protocol: relative viability (nuclei count vs DMSO), 5 days (fraction); higher = more cells survive
- Assay Conditions: first compound 0.08 µM
Measured Quantity: relative viability
Give the figure by itself; no unit, no explanation.

Guide cases for relative viability, answers given:
compound="C=C1C(=O)O[C@@H](CCCCCCCC)[C@@H]1C(=O)O [C-75] + COc1cccc2cc(-c3nc([C@H]4CC[C@H](C(=O)O)CC4)n4ncnc(N)c34)[nH]c12 [OSI-027] (partner 0.5 µM)" reported_result=0.582
compound="Oc1nc(-c2ccc(C(F)(F)F)cc2)nc2c1CSCC2 [XAV939] + CCNC(=O)c1noc(-c2cc(C(C)C)c(O)cc2O)c1-c1ccc(CN2CCOCC2)cc1 [Luminespib] (partner 0.01 µM)" reported_result=0.645
compound="C=C1C(=O)O[C@@H](CCCCCCCC)[C@@H]1C(=O)O [C-75] + CC(=O)Nc1cccc(-n2c(=O)n(C3CC3)c(=O)c3c(Nc4ccc(I)cc4F)n(C)c(=O)c(C)c32)c1 [Trametinib] (partner 0.02 µM)" reported_result=0.956
compound="Oc1nc(-c2ccc(C(F)(F)F)cc2)nc2c1CSCC2 [XAV939] + CC(=O)Nc1cccc(-n2c(=O)n(C3CC3)c(=O)c3c(Nc4ccc(I)cc4F)n(C)c(=O)c(C)c32)c1 [Trametinib] (partner 0.02 µM)" reported_result=0.834

Now look at this one.
Q: Determine its reported relative viability: Oc1nc(-c2ccc(C(F)(F)F)cc2)nc2c1CSCC2 [XAV939] + COc1cccc2cc(-c3nc([C@H]4CC[C@H](C(=O)O)CC4)n4ncnc(N)c34)[nH]c12 [OSI-027] (partner 0.5 µM)
A: 0.596

###

- System: NCI-H2087
- Protocol: relative viability (nuclei count vs DMSO), 5 days (fraction); higher = more cells survive
- Assay Conditions: first compound 0.08 µM
Measured Quantity: relative viability
Give the value as a plain number.

Below, each entry is followed by its recorded relative viability result.
compound="C=C1C(=O)O[C@@H](CCCCCCCC)[C@@H]1C(=O)O [C-75] + COc1cccc2cc(-c3nc([C@H]4CC[C@H](C(=O)O)CC4)n4ncnc(N)c34)[nH]c12 [OSI-027] (partner 0.5 µM)" measured_quantity="relative viability" reported_result=0.609
compound="Oc1nc(-c2ccc(C(F)(F)F)cc2)nc2c1CSCC2 [XAV939] + CC(=O)c1c(C)c2cnc(Nc3ccc(N4CCNCC4)cn3)nc2n(C2CCCC2)c1=O [Palbociclib] (partner 0.5 µM)" measured_quantity="relative viability" reported_result=0.325
compound="Oc1nc(-c2ccc(C(F)(F)F)cc2)nc2c1CSCC2 [XAV939] + Cc1cc(Nc2cc(N3CCN(C)CC3)nc(Sc3ccc(NC(=O)C4CC4)cc3)n2)n[nH]1 [Tozasertib] (partner 0.1 µM)" measured_quantity="relative viability" reported_result=0.234
compound="Oc1nc(-c2ccc(C(F)(F)F)cc2)nc2c1CSCC2 [XAV939] + COc1cc2c(Oc3ccc(NC(=O)C4(C(=O)Nc5ccc(F)cc5)CC4)cc3F)ccnc2cc1OCCCN1CCOCC1 [Foretinib] (partner 0.25 µM)" measured_quantity="relative viability" reported_result=1.04
compound="Oc1nc(-c2ccc(C(F)(F)F)cc2)nc2c1CSCC2 [XAV939] + CC1(C)CCC(c2ccc(Cl)cc2)=C(CN2CCN(c3ccc(C(=O)NS(=O)(=O)c4ccc(N[C@H](CCN5CCOCC5)CSc5ccccc5)c(S(=O)(=O)C(F)(F)F)c4)cc3)CC2)C1 [Navitoclax] (partner 0.5 µM)" measured_quantity="relative viability" reported_result=1.13

Q: Look up and state reported relative viability for C=C1C(=O)O[C@@H](CCCCCCCC)[C@@H]1C(=O)O [C-75] + CC1(C)CCC(c2ccc(Cl)cc2)=C(CN2CCN(c3ccc(C(=O)NS(=O)(=O)c4ccc(N[C@H](CCN5CCOCC5)CSc5ccccc5)c(S(=O)(=O)C(F)(F)F)c4)cc3)CC2)C1 [Navitoclax] (partner 0.5 µM)
A: 1.02

Q: Look up relative viability of C=C1C(=O)O[C@@H](CCCCCCCC)[C@@H]1C(=O)O [C-75] + CC(=O)c1c(C)c2cnc(Nc3ccc(N4CCNCC4)cn3)nc2n(C2CCCC2)c1=O [Palbociclib] (partner 0.5 µM) and report it.
A: 0.239

Q: Consider the compound C=C1C(=O)O[C@@H](CCCCCCCC)[C@@H]1C(=O)O [C-75] + Cc1nc(NC(=O)N2CCC[C@H]2C(N)=O)sc1-c1ccnc(C(C)(C)C(F)(F)F)c1 [Alpelisib] (partner 2 µM) . State its measured relative viability.
A: 1.07

Q: Retrieve relative viability measured for C=C1C(=O)O[C@@H](CCCCCCCC)[C@@H]1C(=O)O [C-75] + Nc1nc2[nH]cc(CCc3ccc(C(=O)N[C@@H](CCC(=O)O)C(=O)O)cc3)c2c(=O)[nH]1 [Pemetrexed] (partner 0.2 µM) and print it.
A: 0.695

Q: Note relative viability for the compound shown: Oc1nc(-c2ccc(C(F)(F)F)cc2)nc2c1CSCC2 [XAV939] + O=C(c1cc(Cc2n[nH]c(=O)c3ccccc23)ccc1F)N1CCN(C(=O)C2CC2)CC1 [Olaparib] (partner 8 µM)
A: 0.625

Q: Given C=C1C(=O)O[C@@H](CCCCCCCC)[C@@H]1C(=O)O [C-75] + N=C(N)NC(=N)NCCc1ccccc1 [Phenformin] (partner 250 µM) , respond with its relative viability.
A: 0.409
